Target or system: Human 5-HT6 (Homo sapiens)
Sequence (P50406 whole entry): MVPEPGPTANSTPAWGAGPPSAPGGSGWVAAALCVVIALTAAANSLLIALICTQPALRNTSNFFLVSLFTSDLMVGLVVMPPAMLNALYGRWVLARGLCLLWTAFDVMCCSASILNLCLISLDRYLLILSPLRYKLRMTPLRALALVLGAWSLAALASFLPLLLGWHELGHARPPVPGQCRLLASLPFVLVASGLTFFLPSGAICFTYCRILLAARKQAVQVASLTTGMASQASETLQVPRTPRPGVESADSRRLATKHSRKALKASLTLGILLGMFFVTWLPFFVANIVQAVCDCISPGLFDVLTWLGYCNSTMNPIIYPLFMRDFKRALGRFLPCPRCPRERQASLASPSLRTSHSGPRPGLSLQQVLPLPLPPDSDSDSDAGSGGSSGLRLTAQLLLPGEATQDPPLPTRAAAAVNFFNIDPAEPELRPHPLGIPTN
Test: Radioligand binding: Human 5-HT6
Measured parameter: Ki

Q. Which Ki is reported for this compound? COC(=O)N1CCC(CN2CCC(CNC(=O)c3cccc4[nH]c(C(C)C)nc34)CC2)CC1
A. > 1 µM

====

Measured parameter: Ki

Q. Lab note: need Ki for COC(=O)N1CCC(CN2CCC(CNC(=O)c3cccc4[nH]c(C(C)C)nc34)CC2)CC1 on Human M3 (Homo sapiens), anyone have it?
A. > 10 µM

====

Target or system: UniProt P25103
Sequence (P25103 whole entry): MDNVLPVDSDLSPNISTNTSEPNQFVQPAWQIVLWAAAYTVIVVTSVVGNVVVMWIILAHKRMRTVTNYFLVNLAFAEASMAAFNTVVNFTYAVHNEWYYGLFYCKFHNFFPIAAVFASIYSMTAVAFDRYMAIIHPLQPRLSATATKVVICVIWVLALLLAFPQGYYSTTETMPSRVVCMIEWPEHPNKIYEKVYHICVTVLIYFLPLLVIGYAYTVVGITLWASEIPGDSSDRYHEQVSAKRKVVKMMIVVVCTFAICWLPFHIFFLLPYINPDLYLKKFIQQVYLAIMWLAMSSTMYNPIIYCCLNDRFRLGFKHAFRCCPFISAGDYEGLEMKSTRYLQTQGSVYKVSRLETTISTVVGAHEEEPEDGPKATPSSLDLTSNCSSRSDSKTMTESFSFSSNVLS
Test: Radioligand binding: Human NK1
pKi: −log10 of the molar value.
Measured parameter: pKi

Q. Would you kindly share the measured pKi for COC(=O)N1CCC(CN2CCC(CNC(=O)c3cccc4[nH]c(C(C)C)nc34)CC2)CC1 ?
A. < 6.00

====

Target or system: UniProt:P24530
Sequence (P24530 27-442): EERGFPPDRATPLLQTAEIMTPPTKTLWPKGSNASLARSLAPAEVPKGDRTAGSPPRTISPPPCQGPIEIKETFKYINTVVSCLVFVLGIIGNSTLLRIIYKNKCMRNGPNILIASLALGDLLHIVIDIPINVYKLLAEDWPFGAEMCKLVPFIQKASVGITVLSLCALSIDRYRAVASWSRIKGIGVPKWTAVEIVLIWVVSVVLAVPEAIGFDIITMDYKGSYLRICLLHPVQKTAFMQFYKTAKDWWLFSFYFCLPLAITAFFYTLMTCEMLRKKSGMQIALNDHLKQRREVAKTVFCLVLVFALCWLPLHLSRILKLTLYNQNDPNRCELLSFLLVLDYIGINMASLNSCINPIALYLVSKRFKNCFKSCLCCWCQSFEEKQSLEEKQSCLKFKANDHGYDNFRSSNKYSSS
Measured parameter: Ki

Q. What Ki value was documented for this compound, COC(=O)N1CCC(CN2CCC(CNC(=O)c3cccc4[nH]c(C(C)C)nc34)CC2)CC1 [TD-8954] ?
A. > 1000 nM

====

Target or system: Human 5-HT5a (Homo sapiens, UniProt P47898)
Sequence (P47898 whole entry): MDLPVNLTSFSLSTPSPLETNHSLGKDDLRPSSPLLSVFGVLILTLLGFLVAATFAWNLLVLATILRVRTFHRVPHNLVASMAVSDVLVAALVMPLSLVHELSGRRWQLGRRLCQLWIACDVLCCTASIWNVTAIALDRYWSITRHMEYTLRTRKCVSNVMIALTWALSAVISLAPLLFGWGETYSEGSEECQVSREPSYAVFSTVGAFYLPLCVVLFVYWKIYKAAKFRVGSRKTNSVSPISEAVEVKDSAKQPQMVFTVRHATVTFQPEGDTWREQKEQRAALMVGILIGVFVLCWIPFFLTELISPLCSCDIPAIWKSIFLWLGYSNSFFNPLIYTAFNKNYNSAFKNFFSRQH
Measured parameter: Ki

Q. I would be grateful if you could share the reported Ki for COC(=O)N1CCC(CN2CCC(CNC(=O)c3cccc4[nH]c(C(C)C)nc34)CC2)CC1 .
A. > 1000 nM

====

Measured parameter: Ki

Q. Under Human D2S (Homo sapiens): Ki value of COC(=O)N1CCC(CN2CCC(CNC(=O)c3cccc4[nH]c(C(C)C)nc34)CC2)CC1 ?
A. > 1 µM

====

pIC50: −log10 of the molar value.
Measured parameter: pIC50

Q. Param readout = pIC50; param system = Human COX1 (Homo sapiens, UniProt P23219); param query = COC(=O)N1CCC(CN2CCC(CNC(=O)c3cccc4[nH]c(C(C)C)nc34)CC2)CC1 ; response: value
Sequence (P23219 24-599): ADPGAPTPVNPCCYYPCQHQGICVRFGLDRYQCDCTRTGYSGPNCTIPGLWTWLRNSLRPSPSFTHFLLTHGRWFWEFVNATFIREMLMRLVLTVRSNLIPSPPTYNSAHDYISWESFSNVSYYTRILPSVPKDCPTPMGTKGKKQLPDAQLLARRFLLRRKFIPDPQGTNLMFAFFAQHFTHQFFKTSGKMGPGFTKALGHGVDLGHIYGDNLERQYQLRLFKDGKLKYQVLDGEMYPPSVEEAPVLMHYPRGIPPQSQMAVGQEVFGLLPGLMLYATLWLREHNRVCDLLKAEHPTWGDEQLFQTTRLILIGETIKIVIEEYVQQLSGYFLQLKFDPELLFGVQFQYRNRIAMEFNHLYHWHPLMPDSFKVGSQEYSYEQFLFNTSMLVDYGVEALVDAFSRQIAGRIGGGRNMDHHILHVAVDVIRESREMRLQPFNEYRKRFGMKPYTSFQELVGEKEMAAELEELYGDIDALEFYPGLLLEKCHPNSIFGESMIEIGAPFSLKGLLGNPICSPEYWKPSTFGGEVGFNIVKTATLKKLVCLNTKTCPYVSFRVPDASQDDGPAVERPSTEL
A. < 6.00

====

Target or system: Human NK2 (Homo sapiens)
Sequence (P21452 1-398): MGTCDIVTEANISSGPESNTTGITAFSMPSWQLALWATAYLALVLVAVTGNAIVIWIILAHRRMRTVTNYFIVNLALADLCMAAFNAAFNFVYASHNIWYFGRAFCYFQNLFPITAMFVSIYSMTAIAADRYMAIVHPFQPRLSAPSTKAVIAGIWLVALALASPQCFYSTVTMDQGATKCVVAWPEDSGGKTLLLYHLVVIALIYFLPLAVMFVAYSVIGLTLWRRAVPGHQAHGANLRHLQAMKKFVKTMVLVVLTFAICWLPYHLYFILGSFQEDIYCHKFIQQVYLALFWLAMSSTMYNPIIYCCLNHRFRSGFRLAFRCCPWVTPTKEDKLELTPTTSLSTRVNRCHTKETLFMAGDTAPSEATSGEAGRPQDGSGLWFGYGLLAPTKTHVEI
pKi: −log10 of the molar value.
Measured parameter: pKi

Q. So what does the record say about pKi for COC(=O)N1CCC(CN2CCC(CNC(=O)c3cccc4[nH]c(C(C)C)nc34)CC2)CC1 [TD-8954] ?
A. < 6.00

====

Target or system: Human COX2 (Homo sapiens)
Sequence (P35354 18-604): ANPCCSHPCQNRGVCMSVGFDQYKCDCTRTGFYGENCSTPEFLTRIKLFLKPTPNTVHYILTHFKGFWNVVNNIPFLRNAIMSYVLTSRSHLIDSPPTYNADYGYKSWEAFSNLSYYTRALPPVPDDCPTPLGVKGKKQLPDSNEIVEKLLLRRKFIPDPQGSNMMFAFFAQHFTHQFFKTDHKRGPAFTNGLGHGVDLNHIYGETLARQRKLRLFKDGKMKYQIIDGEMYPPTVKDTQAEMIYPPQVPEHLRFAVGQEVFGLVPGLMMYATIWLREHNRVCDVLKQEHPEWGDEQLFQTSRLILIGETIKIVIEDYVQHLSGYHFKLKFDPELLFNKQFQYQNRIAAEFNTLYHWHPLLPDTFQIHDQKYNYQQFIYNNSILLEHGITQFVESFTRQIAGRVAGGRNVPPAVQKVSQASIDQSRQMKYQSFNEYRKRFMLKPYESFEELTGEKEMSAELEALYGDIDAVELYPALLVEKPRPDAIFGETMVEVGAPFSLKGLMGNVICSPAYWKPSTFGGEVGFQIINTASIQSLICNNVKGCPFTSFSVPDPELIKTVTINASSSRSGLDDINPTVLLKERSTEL
pIC50: −log10 of the molar value.
Measured parameter: pIC50

Q. Item COC(=O)N1CCC(CN2CCC(CNC(=O)c3cccc4[nH]c(C(C)C)nc34)CC2)CC1 has what recorded pIC50?
A. < 6.00

====

Target or system: UniProt:P32238
Sequence (P32238 1-428): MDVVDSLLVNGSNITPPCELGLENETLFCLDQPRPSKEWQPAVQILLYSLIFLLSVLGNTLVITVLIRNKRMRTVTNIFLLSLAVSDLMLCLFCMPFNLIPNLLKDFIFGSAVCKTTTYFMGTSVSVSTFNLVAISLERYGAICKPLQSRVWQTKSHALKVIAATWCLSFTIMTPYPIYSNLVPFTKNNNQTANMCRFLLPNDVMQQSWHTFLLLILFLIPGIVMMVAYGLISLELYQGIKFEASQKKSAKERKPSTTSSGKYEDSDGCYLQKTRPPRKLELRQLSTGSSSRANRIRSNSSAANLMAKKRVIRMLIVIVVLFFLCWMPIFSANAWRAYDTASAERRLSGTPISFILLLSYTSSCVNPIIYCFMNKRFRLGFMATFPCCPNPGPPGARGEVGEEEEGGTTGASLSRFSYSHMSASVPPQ
pKi: −log10 of the molar value.
Measured parameter: pKi

Q. Field request: pKi | item: COC(=O)N1CCC(CN2CCC(CNC(=O)c3cccc4[nH]c(C(C)C)nc34)CC2)CC1 [TD-8954]
A. < 6.00

====

Target or system: Human B2 (Homo sapiens, UniProt P30411)
Sequence (P30411 1-391): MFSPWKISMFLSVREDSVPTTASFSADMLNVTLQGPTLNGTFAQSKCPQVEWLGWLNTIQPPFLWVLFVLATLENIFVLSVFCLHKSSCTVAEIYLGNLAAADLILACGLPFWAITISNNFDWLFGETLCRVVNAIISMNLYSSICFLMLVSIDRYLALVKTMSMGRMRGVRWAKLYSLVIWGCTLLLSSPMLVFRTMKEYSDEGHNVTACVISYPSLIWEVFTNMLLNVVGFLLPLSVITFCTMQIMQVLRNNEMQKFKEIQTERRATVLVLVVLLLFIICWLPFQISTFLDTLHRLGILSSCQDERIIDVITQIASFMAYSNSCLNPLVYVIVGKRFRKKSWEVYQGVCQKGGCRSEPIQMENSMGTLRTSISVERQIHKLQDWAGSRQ
Test: Radioligand binding: Human B2
pKi: −log10 of the molar value.
Measured parameter: pKi

Q. What pKi value was documented for this compound, COC(=O)N1CCC(CN2CCC(CNC(=O)c3cccc4[nH]c(C(C)C)nc34)CC2)CC1 ?
A. < 6.00

====

Target or system: UniProtKB F1MMU1
Sequence (F1MMU1 1-377): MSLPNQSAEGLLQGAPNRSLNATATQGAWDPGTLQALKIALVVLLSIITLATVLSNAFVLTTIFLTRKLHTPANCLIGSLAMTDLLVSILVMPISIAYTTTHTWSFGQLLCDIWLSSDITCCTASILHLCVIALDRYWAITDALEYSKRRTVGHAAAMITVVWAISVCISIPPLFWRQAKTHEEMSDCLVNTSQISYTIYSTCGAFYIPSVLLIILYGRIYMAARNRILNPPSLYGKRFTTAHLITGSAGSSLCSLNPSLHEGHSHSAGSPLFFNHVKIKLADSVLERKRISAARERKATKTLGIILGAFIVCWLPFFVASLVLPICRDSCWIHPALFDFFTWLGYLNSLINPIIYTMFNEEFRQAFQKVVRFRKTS
Test: Radioligand binding: Bovine 5-HT1D
Measured parameter: Ki

Q. For UniProtKB F1MMU1, provide Ki of COC(=O)N1CCC(CN2CCC(CNC(=O)c3cccc4[nH]c(C(C)C)nc34)CC2)CC1 please.
A. > 1 µM

====

Target or system: human 5-HT4(c) (h5-HT4(c)) receptor (Homo sapiens)
Sequence (Q13639 1-380 isoform Q13639-4): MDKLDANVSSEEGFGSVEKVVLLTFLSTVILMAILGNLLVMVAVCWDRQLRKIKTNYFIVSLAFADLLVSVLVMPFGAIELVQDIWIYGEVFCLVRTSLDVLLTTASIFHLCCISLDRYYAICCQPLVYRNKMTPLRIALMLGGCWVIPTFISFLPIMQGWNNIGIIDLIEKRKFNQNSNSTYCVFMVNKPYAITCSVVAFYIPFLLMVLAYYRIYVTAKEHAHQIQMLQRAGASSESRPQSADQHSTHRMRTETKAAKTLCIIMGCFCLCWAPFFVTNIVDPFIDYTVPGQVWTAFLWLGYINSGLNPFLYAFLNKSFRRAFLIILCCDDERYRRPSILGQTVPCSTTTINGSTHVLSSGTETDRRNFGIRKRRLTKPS
Measured parameter: Ki (nM)
State the answer as a number, implicitly in nM.

Q. What value of measured Ki is listed for [H]/N=C(/NCCCCC)N/N=C/c1c[nH]c2ccc(OC)cc12 ?
A. 2.51

Q. Query: Ki; subject: CCOc1cc(N)c(Cl)cc1C(=O)NCC1CN(Cc2ccc(F)cc2)CCO1 (centres unmarked) [Mosapride, mosapride]
A. 158
